The measured values listed here are drawn from PubChem BioAssay (Tox21).

- targetOfAssay: Androgen receptor (Homo sapiens)
- experimentalProtocol: qHTS assay to identify small molecule antagonists of the androgen receptor (AR) signaling pathway using the MDA cell line in the presence of 0.5 nM R1881 (AID 1259243); note: nearly all actives have a fitted effect of over 50% in size
- settings: MDA-kb2 MMTV-luciferase, R1881 0.5 nM, 16 h; series mostly up to 92.4 µM
Inconclusive results are not listed. Calls of active or inactive are those of the source. Calls come from the whole dose curve; as a rule, active = well fitted inhibition curve with a large enough effect in the repeat runs; inconclusive = weak or mixed curves; inactive = no such curve, though single readings can be large or run the other way.
Result category, one only: 1 (yes) = active, 0 (no) = inactive

Example entries and their recorded answers appear below.
- Cc1nc(-c2ccc3c(c2)CCN(CCC2CCC(NC(=O)/C=C/c4ccc(F)cc4)CC2)CC3)no1 (stereo not given): 0 (no)
- CCC(C)Nc1ccc(NC(C)CC)cc1 (stereo not given): 1 (yes)
- O=C(NOCC1CC1)c1ccc(F)c(F)c1Nc1ccc(I)cc1Cl: 1 (yes)
- Nc1ccc(N)c2ccccc12: 1 (yes)
- CCCCCCCCCCCCCC[P+](CCCC)(CCCC)CCCC (tested in a mixture with another compound): 1 (yes)

Can you look up the reported call for O=C(O)c1ccc(Cl)c(Cl)c1 for me? 0 (no)

Can you look up the reported call for O=C(OCC1CO1)C1CCCCC1C(=O)OCC1CO1 (stereo not given) for me? 0 (no)

Can you look up the reported call for CCCCCCCCCCn1cc[n+](CCCCCCCCCC)c1C for me? 1 (yes)

Can you look up the reported call for CN(C)CCCOC1(Cc2ccccc2)CCCCCC1 for me? 0 (no)

Can you look up the reported call for CN(C)C(=O)C1(N2CCCCC2)CCN(CC[C@@]2(c3ccc(Cl)c(Cl)c3)CN(C(=O)c3ccccc3)CCO2)CC1 for me? 1 (yes)

Can you look up the reported call for CCCC(=O)OC[C@@H](OC(=O)CCC)[C@@H](OC(=O)CCC)[C@H](Cn1c2nc(=O)[nH]c(=O)c-2nc2cc(C)c(C)cc21)OC(=O)CCC for me? 1 (yes)

Can you look up the reported call for CCCCC(CC)CN=C(N)NC(N)=NCCCCCCN=C(N)NC(N)=NCC(CC)CCCC (stereo not given) for me? 1 (yes)

Can you look up the reported call for O=c1[nH]sc2cc(Cl)ccc12 for me? 1 (yes)

* * *

- experimentalProtocol: qHTS assay for small molecules that induce genotoxicity in human embryonic kidney cells expressing luciferase-tagged ATAD5 - cell viability (AID 651634); note: nearly all actives have a fitted effect of over 25% in size; note: potency is the fitted concentration of half-maximal effect
- settings: HEK293T ATAD5-luc cells viability, CellTiter-Fluor, 15.5 h; series mostly up to 83.3 µM
Inconclusive results are not listed. The source made the active and inactive calls. The call rests on the fitted dose curve.
measuredQuantity: Potency

Here's what some known entries look like.
* C[C@]12CCC(=O)C=C1CC[C@@H]1[C@@H]2[C@@H](O)C[C@@]2(C)[C@H]1CC[C@]2(O)C(=O)COC(=O)CCC(=O)O | inactive
* CCc1cc(Cc2cc(CC)cc(C(C)(C)C)c2O)c(O)c(C(C)(C)C)c1 | 61.1 µM (active)
* COCCCC/C(=N\OCCN)c1ccc(C(F)(F)F)cc1 | inactive
* O=C(Oc1ccccc1)c1ccccc1C(=O)Oc1ccccc1 | inactive

// sample O=C(c1ccc(F)cc1)C1CCN(CCn2c(=O)[nH]c3ccccc3c2=O)CC1 , its Potency was inactive

// sample C[C@H]1[C@H]2CC[C@H]3[C@@H]4CC=C5C[C@@H](N(C)C)CC[C@]5(C)[C@H]4CC[C@]23CN1C , its Potency was inactive

// sample Cc1[nH]nc2c1N=C(c1ccccc1Cl)c1cc([N+](=O)[O-])ccc1N2 , its Potency was 30.6 µM (active)

// sample Cc1ccc(O)c2ncccc12 , its Potency was inactive

// sample CC1=C(/C=C/C(C)=C/C=C/C(C)=C/C=O)C(C)(C)CCC1 , its Potency was 60.8 µM (active)

// sample Cc1cc(N)c(S(=O)(=O)O)cc1Cl , its Potency was inactive
